Entries and their measured pIC50 follow.
# procedure-text: Inhibition of Wnt3A-induced Wnt transcription (unknown origin) expressed in HEK293 cells coexpressing TK-driven Rluc after 20 to 22 hrs by super-top flash reporter gene assay
# Assay type: cell-based
# condition-notes: Homo sapiens
# log scale: pIC50 equals minus log10 of the concentration in mol/L

Before answering, review these 3 worked examples.
Measured pIC50, CC1CN(C)c2ccccc2N1S(=O)(=O)c1ccc(N2CCCC2=O)cc1 (racemic) : 8.05

Measured pIC50, CN1CCN(S(=O)(=O)c2ccc(N3CCC=N3)cc2)c2ccccc21 : 7.74

Measured pIC50, O=S(=O)(c1ccc(N2CCCC2)cc1)N1CCCc2ccccc21 : 7.70

New cases:
Measured pIC50, CC(C)(C)c1ccc2c(c1)CCCN2S(=O)(=O)c1ccc(N2CCCC2=O)cc1 : 6.18

---

Entries and their measured pIC50 follow.
# Test system: MDA-MB-231
# procedure-text: Antiproliferative activity against human MDA-MB-231 cells after 24 hrs by SYBR green dye based fluorescence assay
# Format: functional, cell-based
# condition-notes: MDA-MB-231, 24 h
# log scale: pIC50 equals minus log10 of the concentration in mol/L

Before answering, review these 3 worked examples.
Measured pIC50, CN1CCN(S(=O)(=O)c2ccc(N3CCCC3)cc2)c2ccccc21 : 7.80

Measured pIC50, COc1ccc2c(c1)N(C)CCN2S(=O)(=O)c1ccc(N2CCCC2=O)cc1 : 7.85

Measured pIC50, CN1CCN(S(=O)(=O)c2ccc(N3CCC=N3)cc2)c2ccccc21 : 7.89

New cases:
Measured pIC50, COc1ccc2c(c1)CCCN2S(=O)(=O)c1ccc(N2CCCC2=O)cc1 : 7.70

Measured pIC50, CC(C)(C)c1ccc2c(c1)CCCN2S(=O)(=O)c1ccc(N2CCCC2=O)cc1 : 6.22

Measured pIC50, Cc1ccc2c(c1)CCCN2S(=O)(=O)c1ccc(N2CCCC2=O)cc1 : 7.77

Measured pIC50, CN1CCN(S(=O)(=O)c2ccc(N3CCCC3=O)cc2)c2ccccc21 : 7.89

Measured pIC50, O=C1CCCN1c1ccc(S(=O)(=O)N2CCCc3ccccc32)cc1 : 7.82

---

Entries and their measured pIC50 follow.
# procedure-text: Inhibition of Wnt3A-induced Wnt transcription (unknown origin) expressed in HEK293 cells coexpressing TK-driven Rluc after 20 to 22 hrs by super-top flash reporter gene assay
# Type: cell-based
# condition-notes: Homo sapiens
pIC50: −log10 of the molar value.

Before answering, review these 3 worked examples.
Measured pIC50, O=C1CCCN1c1ccc(S(=O)(=O)N2CCN(CCO)c3ccccc32)cc1 : < 5.30

Measured pIC50, O=C1CCCN1c1ccc(S(=O)(=O)N2CCCC3CCCCC32)cc1 (stereo unspecified) : < 5.30

Measured pIC50, O=C1CCCN1c1ccc(S(=O)(=O)N2CCNc3ccccc32)cc1 : < 5.30

New cases:
Measured pIC50, CC(=O)N(C)c1ccc(S(=O)(=O)N2CCCc3ccccc32)cc1 : < 5.30

Measured pIC50, O=C1CCCN1c1ccc(C(=O)N2CCCc3ccccc32)cc1 : < 5.30

---

# Test system: MCF7
# procedure-text: Induction of apoptosis in human MCF7 cells after 24 hrs by caspase-Glo 3/7 reagent based luminescence assay
# Type: functional, cell-based
# condition-notes: MCF7, 24 h
Entries and their measured EC50 follow.
Field format: number, assumed nM, no unit text.

Measured EC50, CN1CCN(S(=O)(=O)c2ccc(N3CCC=N3)cc2)c2ccccc21 : 5

Measured EC50, CC(C)(C)c1ccc2c(c1)CCCN2S(=O)(=O)c1ccc(N2CCCC2=O)cc1 : 307

Shift focus to the following entry.
Measured EC50, COc1ccc2c(c1)CCCN2S(=O)(=O)c1ccc(N2CCCC2=O)cc1 : 16

---

# procedure-text: Lipophilicity, log D of the compound at pH 3
# Type: physicochemical
# condition-notes: buffer
measured-quantity: logD
Answer with a bare number; do not write a unit.

Measured logD, O=S(=O)(c1ccc(N2CCC=N2)cc1)N1CCCc2ccccc21 : 1.5

Measured logD, O=C1CCCN1c1ccc(S(=O)(=O)N2CCOc3ccccc32)cc1 : 1.7

Shift focus to the following entry.
Measured logD, O=C1CCCN1c1ccc(S(=O)(=O)N2CCCc3ccccc32)cc1 : 2.5
